The values you see were collected from the supplement of paper PMC9732359.

- ASSAY_PROCEDURE: protein stability index of a GFP-peptide fusion (yeast GPS) (PSI 1-4); higher = more stable; sorted into four equal gates, so the index is relative within each strain
- RUN_PARAMETERS: ubr1∆
As shown below, each of these sequences has a reported protein stability index value.

{"SEQUENCE_CONTENT": "NAEKTGKRQVLIRPSSK [RPS22A]", "protein stability index": 3.03}
{"SEQUENCE_CONTENT": "SENRNNIKSSISNGNLA [YOR098C/NUP1]", "protein stability index": 3.17}
{"SEQUENCE_CONTENT": "LSISVAAEPMDSKMIQD [SNU114]", "protein stability index": 3.18}
{"SEQUENCE_CONTENT": "KTLVALEKQEDYIDNLV [RPC37]", "protein stability index": 3.07}
{"SEQUENCE_CONTENT": "EYDTPALFFDPSLNPIP [PRP8]", "protein stability index": 2.69}
{"SEQUENCE_CONTENT": "IYPRTVIDIEIHVLEQD [SKI6]", "protein stability index": 1.83}
{"SEQUENCE_CONTENT": "NGGEDTSVENEGPVANL [REC8]", "protein stability index": 3.16}
